Tested on: ADRα1A
Protocol Summary: PBK modelling-based reverse dosimetry of in vitro EC50 to ED50, ADRα1A
Condition Notes: predicted human oral ED50 from in vitro EC50 (Pinckaers et al. [2024]) and modelled Cmax plasma venous
Readout Type: ADRα1A ED50

1) CNCC(O)c1ccccc1 (centres unmarked)    10.5 mg/kg bw
